target: UniProt:P31645; assay: Competition binding, membranes from HEK cells overexpressing SERT; parameters: expressed in transfected cells; host or cells: HEK cells (membranes); details: radioligand at Kd concentration; HEK cell membranes; read-out: SERT binding IC50
measure.name: pIC50
Give bare numbers, as −log10 of the molar value.

Qu. Please report pIC50 for the following molecule: Nc1ccc(-c2ccc3c(c2)CNC[C@H]3c2ccc3ccccc3c2)nn1 [Compound 31]
Ans. 9.68

---

molecular target: SERT (Homo sapiens, UniProt P31645); assay: [3H]5-HT uptake into HEK293/hSERT cells; format: cell-based; set-up: expressed in transfected cells; host or cells: HEK293; details: read-out: Serotonin reuptake IC50 ([3H]5-HT uptake)
Sequence (P31645 whole entry): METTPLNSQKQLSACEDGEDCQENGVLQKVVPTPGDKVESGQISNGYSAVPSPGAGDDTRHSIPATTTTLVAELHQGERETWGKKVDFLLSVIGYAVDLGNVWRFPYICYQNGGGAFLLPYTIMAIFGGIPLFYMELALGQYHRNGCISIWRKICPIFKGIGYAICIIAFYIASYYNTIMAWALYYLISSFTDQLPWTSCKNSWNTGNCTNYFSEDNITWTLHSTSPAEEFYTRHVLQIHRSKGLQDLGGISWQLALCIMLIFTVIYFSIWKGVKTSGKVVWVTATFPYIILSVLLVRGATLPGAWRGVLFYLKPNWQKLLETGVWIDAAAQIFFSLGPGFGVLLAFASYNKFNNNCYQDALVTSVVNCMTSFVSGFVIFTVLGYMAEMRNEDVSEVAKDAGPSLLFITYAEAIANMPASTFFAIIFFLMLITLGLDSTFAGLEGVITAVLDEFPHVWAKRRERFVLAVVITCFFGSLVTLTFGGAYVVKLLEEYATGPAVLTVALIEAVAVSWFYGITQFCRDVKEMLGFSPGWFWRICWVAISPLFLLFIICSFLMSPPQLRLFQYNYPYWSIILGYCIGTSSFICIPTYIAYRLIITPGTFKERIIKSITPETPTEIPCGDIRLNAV
measure.name: pIC50
Answers are plain numbers, as −log10 of the molar value.

Qu. # return recorded pIC50 for entry CN1Cc2cc(-c3ccc(N)nn3)ccc2[C@H](c2ccc3ccccc3c2)C1
Ans. 7.73

Entry source: patent US20160022675A1
